meta.source: PubChem BioAssay AID2021

Target: Cell division control protein 42 homolog (Homo sapiens)
Test: Cdc42 activated mutant GTP-binding inhibitors, SAR follow-up, biochemical, bead-based multiplex flow cytometry, additional SAR set (AID 2021)
Details: fluorescent GTP binding, measured here: Ki derived from EC50
ASSAY METRIC: pKi
Answer as the number alone; pKi is minus log10 of concentration in mol/L.

Given the compound CC(C)Cc1ccc([C@H](C)C(=O)O)cc1 , what is its reported pKi?
6.00

Now give it for O=C1N=c2ccccc2=C1c1[nH]c(=O)[nH]c1O too.
6.09

Now the same for O=[N+]([O-])c1ccc(C#Cc2ccccc2)cc1
5.67

----------
Target: Cell division control protein 42 homolog (Homo sapiens)
Assay: Cdc42 activated mutant GTP-binding inhibitors, SAR follow-up, biochemical, bead-based multiplex flow cytometry, additional SAR set (AID 2021)
Conditions: fluorescent GTP binding
Calls of active or inactive are those of the source. No rule for the calls is given here.
ASSAY METRIC: EC50

Examples with answers:
O=C(C#Cc1ccccc1)c1ccc(F)cc1; inactive
COc1cc(-c2c(C#N)c(N)n(S(=O)(=O)c3c(C(C)C)cc(C(C)C)cc3C(C)C)c2C(=O)c2ccccc2)cc(OC)c1OC; > 30 µM (inactive)
O=C1Nc2cccc(Br)c2/C1=C1/Cc2ccccc2C1=O; > 30 µM (inactive)
O=C1C(c2c(O)[nH]c3ccccc23)=Nc2ccccc21; > 30 µM (inactive)
O=Nc1c(-c2c(O)[nH]c3c(F)cccc23)[nH]c2ccccc12; > 30 µM (inactive)

Endpoint output: EC50 of O=C(C#Cc1ccccc1)c1cccnc1 . Value?
> 30 µM (inactive)

Try the molecule O=Nc1c(-c2c(O)[nH]c3ccc(Br)cc23)[nH]c2ccccc12
> 30 µM (inactive)

Please do the same for O=C(C#Cc1ccccc1)c1ccc(OC(F)(F)F)cc1 as well.
> 30 µM (inactive)

Also O=Nc1c(-c2c(O)[nH]c3ccccc23)[nH]c2ccccc12 , if possible.
> 30 µM (inactive)

And then N#Cc1ccc(C(=O)C#Cc2ccccc2)cc1 , what is it?
> 30 µM (inactive)

Query CC(C(=O)O)c1cccc(Oc2ccccc2)c1 (configuration not stated) next
> 30 µM (inactive)

Please answer likewise for O=Nc1c(-c2c(O)[nH]c3c(Br)cccc23)[nH]c2ccccc12
inactive

----------
Target: Cell division control protein 42 homolog (Homo sapiens) (UniProt P60953)
Sequence (P60953 whole entry, looked up): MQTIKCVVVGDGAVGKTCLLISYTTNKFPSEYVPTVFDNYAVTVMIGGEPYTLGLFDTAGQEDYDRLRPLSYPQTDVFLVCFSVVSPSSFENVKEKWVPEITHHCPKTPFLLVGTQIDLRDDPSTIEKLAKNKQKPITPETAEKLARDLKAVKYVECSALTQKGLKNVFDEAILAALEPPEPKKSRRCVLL
Experiment: Cdc42 activated mutant GTP-binding inhibitors, SAR follow-up, biochemical, bead-based multiplex flow cytometry, additional SAR set (AID 2021)
Details: fluorescent GTP binding
Active and inactive are the calls of the source. No rule for the calls is given here.
ASSAY METRIC: EC50

Answered cases to consult:
O=C1N=c2ccccc2=C1c1[nH]c(=S)[nH]c1O; > 30 µM (inactive)
O=C1Nc2ccccc2/C1=C1/Cc2ccccc2C1=O; > 30 µM (inactive)
O=C1C(c2c(O)[nH]c3c(Cl)cccc23)=Nc2ccccc21; > 30 µM (inactive)
COc1ccc(S(=O)(=O)n2c(N)c(C#N)c(-c3cc(Br)c(OC)c(OC)c3)c2C(=O)c2ccccc2)cc1; > 30 µM (inactive)
COc1ccc(-c2c(C#N)c(N)n(S(C)(=O)=O)c2C(=O)c2ccccc2)cc1Br; inactive
N#Cc1c(-c2ccc(Cl)cc2)c(C(=O)c2ccccc2)n(S(=O)(=O)c2ccc([N+](=O)[O-])cc2)c1N; inactive
O=C1Nc2c(Br)cccc2/C1=C1/Cc2ccccc2C1=O; > 30 µM (inactive)
O=C(C#Cc1ccccc1)c1ccccc1[N+](=O)[O-]; > 30 µM (inactive)

Look up EC50: CC(C)Cc1ccc([C@H](C)C(=O)O)cc1
inactive

What would you report for CC1=C(CC(=O)O)c2cc(F)ccc2/C1=C/c1ccc(S(C)=O)cc1 (stereo not given) ?
> 30 µM (inactive)
